System: Oryza sativa
Test: Phytotoxicity against two-leaf stage Oryza sativa cv. Nipponbare (rice) planted zero cm depth at 2.5 g a.i/a measured after 3 weeks
Format: organism-based
Conditions: in vivo, other, 504 h
Lab note: compare Activity with 70%, writing rule met if less and rule not met if equal or more.

[ask] Strictly below 70% in Activity? CC1=C(c2ccccc2)C(=O)N(C(C)(C)c2cc(Cl)cc(Cl)c2)C1
[reply] rule not met

[ask] Strictly below 70% in Activity? COC(=O)C1(c2ccccc2F)C(=O)N(C(C)(C)c2cc(Cl)cc(Cl)c2)C=C1C (centres undefined)
[reply] rule met

[ask] Strictly below 70% in Activity? COC(=O)C1(c2ccccc2)C(=O)N(C(C)(C)c2cccc(Cl)c2)C=C1C (centres undefined)
[reply] rule not met

[ask] Strictly below 70% in Activity? COC(=O)C1(c2ccccc2)C(=O)N(C(C)(C)c2cc(Cl)cc(Cl)c2)C=C1C (centres undefined)
[reply] rule met

[ask] Strictly below 70% in Activity? COC(=O)C1(c2ccccc2)C(=O)N(C(C)(C)c2cc(Cl)cc(Cl)c2)C=C1CO (centres undefined)
[reply] rule met

---
[ask] Strictly below 70% in Activity? C=C1CN(C(C)(C)c2cc(Cl)cc(Cl)c2)C(=O)C1(C(=O)OC)c1ccccc1 (centres undefined)
[reply] rule not met

[ask] Strictly below 70% in Activity? COCC1=CN(C(C)(C)c2cc(Cl)cc(Cl)c2)C(=O)C1(C(=O)OC)c1ccccc1 (centres undefined)
[reply] rule met

[ask] Strictly below 70% in Activity? C=C1CN(C(C)(C)c2cc(Cl)cc(Cl)c2)C(=O)C1(C(=O)OC)c1ccccc1F (centres undefined)
[reply] rule not met

* * *

Each item that follows carries a reported Activity.
Tested on: Echinochloa oryzicola
Assay: Post-emergence herbicide activity against Echinochloa oryzicola under greenhouse condition at 10 g a.i/a treated at one-leaf stage measured after 3 weeks
Assay type: functional
Give the quantity in %, number only.

Guide cases for Activity, answers given:
[ask] Answer with the recorded Activity of COC(=O)C1(c2ccccc2)C(=O)N(C(C)(C)c2cc(Cl)cc(Cl)c2)C=C1C(F)F (centres undefined) only.
[reply] 87.6

[ask] Answer with the recorded Activity of COC(=O)C1(c2ccccc2)C(=O)N(C(C)(C)c2cc(Cl)cc(Cl)c2)C=C1COC(C)=O (centres undefined) only.
[reply] 100

[ask] Answer with the recorded Activity of COC(=O)C1(c2ccccc2)C(=O)N(C(C)(C)c2cc(Cl)cc(Cl)c2)C=C1/C=N/O (centres undefined) only.
[reply] 0.1

[ask] Answer with the recorded Activity of COC(=O)C1(c2ccccc2)C(=O)N(C(C)(C)c2cc(Cl)cc(Cl)c2)C=C1C (centres undefined) only.
[reply] 100

[ask] Answer with the recorded Activity of COCC1=CN(C(C)(C)c2cc(Cl)cc(Cl)c2)C(=O)C1(C(=O)OC)c1ccccc1 (centres undefined) only.
[reply] 100

[ask] Answer with the recorded Activity of COC(=O)C1(c2ccccc2)C(=O)N(C(C)(C)c2cc(F)cc(F)c2)C=C1C (centres undefined) only.
[reply] 100

[ask] Answer with the recorded Activity of CCOC(=O)C1(c2ccccc2)C(=O)N(C(C)(C)c2cc(Cl)cc(Cl)c2)C=C1C (centres undefined) only.
[reply] 100

[ask] Answer with the recorded Activity of COC(=O)C1(c2ccccc2)C(=O)N(C(C)(C)c2cc(Cl)cc(Cl)c2)C=C1CO (centres undefined) only.
[reply] 100

---
[ask] Answer with the recorded Activity of COC(=O)C1(c2ccccc2)C(=O)N(C(C)(C)c2cccc(Cl)n2)C=C1C (centres undefined) only.
[reply] 87.6

* * *

Tested on: Echinochloa oryzicola
Experiment: Herbicidal activity against Echinochloa oryzicola at 1 g a.i/a treated at 2.5 leaf stage measured after 3 weeks
Assay type: functional
Each item that follows carries a reported Activity.

Guide cases for Activity, answers given:
[ask] Give measured Activity for C=C1CN(C(C)(C)c2cc(Cl)cc(Cl)c2)C(=O)C1(C(=O)OC)c1ccccc1F (stereo not drawn) (Echinochloa oryzicola).
[reply] 65%

[ask] Give measured Activity for COC(=O)C1(c2ccccc2)C(=O)N(C(C)(C)c2cccc(Cl)c2)C=C1C (stereo not drawn) (Echinochloa oryzicola).
[reply] 40%

---
[ask] Give measured Activity for COC(=O)C1(c2ccccc2)C(=O)N(C(C)(C)c2cc(Cl)cc(Cl)c2)C=C1CO (stereo not drawn) (Echinochloa oryzicola).
[reply] 30%

[ask] Give measured Activity for C=C1CN(C(C)(C)c2cc(Cl)cc(Cl)c2)C(=O)C1(C(=O)OC)c1ccccc1 (stereo not drawn) (Echinochloa oryzicola).
[reply] 40%

[ask] Give measured Activity for COC(=O)C1(c2ccccc2F)C(=O)N(C(C)(C)c2cc(Cl)cc(Cl)c2)C=C1C (stereo not drawn) (Echinochloa oryzicola).
[reply] 80%

[ask] Give measured Activity for COC(=O)C1(c2ccccc2)C(=O)N(C(C)(C)c2cc(Cl)nc(Cl)c2)C=C1C (stereo not drawn) (Echinochloa oryzicola).
[reply] 50%

[ask] Give measured Activity for CC1=C(c2ccccc2)C(=O)N(C(C)(C)c2cc(Cl)cc(Cl)c2)C1 (Echinochloa oryzicola).
[reply] 40%

[ask] Give measured Activity for COC(=O)C1(c2ccccc2)C(=O)N(C(C)(C)c2cc(Cl)cc(Cl)c2)C=C1C (stereo not drawn) (Echinochloa oryzicola).
[reply] 60%

* * *

Test system: Oryza sativa
Experiment: Phytotoxicity against two-leaf stage Oryza sativa cv. Nipponbare (rice) planted 2 cm depth at 1 g a.i/a measured after 3 weeks
Assay type: organism-based
Conditions: in vivo, other, 504 h
measurement_label: Activity (%)
Give the quantity in %, number only.

[ask] Give measured Activity for COC(=O)C1(c2ccccc2)C(=O)N(C(C)(C)c2cc(Cl)cc(Cl)c2)C=C1C (stereo unspecified) (Oryza sativa).
[reply] 0

[ask] Give measured Activity for COC(=O)C1(c2ccccc2)C(=O)N(C(C)(C)c2cc(Cl)cc(Cl)c2)C=C1CO (stereo unspecified) (Oryza sativa).
[reply] 0

[ask] Give measured Activity for COC(=O)C1(c2ccccc2)C(=O)N(C(C)(C)c2cccc(Cl)c2)C=C1C (stereo unspecified) (Oryza sativa).
[reply] 0

[ask] Give measured Activity for COC(=O)C1(c2ccccc2)C(=O)N(C(C)(C)c2cc(Cl)nc(Cl)c2)C=C1C (stereo unspecified) (Oryza sativa).
[reply] 0

[ask] Give measured Activity for COC(=O)C1(c2ccccc2F)C(=O)N(C(C)(C)c2cc(Cl)cc(Cl)c2)C=C1C (stereo unspecified) (Oryza sativa).
[reply] 0

---
[ask] Give measured Activity for C=C1CN(C(C)(C)c2cc(Cl)cc(Cl)c2)C(=O)C1(C(=O)OC)c1ccccc1 (stereo unspecified) (Oryza sativa).
[reply] 0

* * *

Each item that follows carries a reported Activity.
Test system: Schoenoplectiella juncoides
Experiment: Post-emergence herbicide activity against Schoenoplectiella juncoides under greenhouse condition at 10 g a.i/a treated at one-leaf stage measured after 3 weeks
Type: functional
In your response, put the unit directly after the numeric value.

Guide cases for Activity, answers given:
[ask] Answer with the recorded Activity of COC(=O)C1(c2ccccc2)C(=O)N(C(C)(C)c2cc(Cl)cc(Cl)c2)C=C1C#N (stereo not given) only.
[reply] 0.1%

[ask] Answer with the recorded Activity of COC(=O)C1(c2ccccc2)C(=O)N(C(C)(C)c2cccc(Cl)n2)C=C1C (stereo not given) only.
[reply] 87.6%

[ask] Answer with the recorded Activity of COC(=O)C1(c2ccccc2)C(=O)N(C(C)(C)c2ccc3ccccc3c2)C=C1C (stereo not given) only.
[reply] 87.6%

[ask] Answer with the recorded Activity of COC(=O)C1(c2ccccc2)C(=O)N(C(C)(C)c2cc(Cl)cc(Cl)c2)C=C1C(F)F (stereo not given) only.
[reply] 50.1%

We next turn to a different molecule, shown below.
[ask] Answer with the recorded Activity of COC(=O)C1(c2ccccc2)C(=O)N(C(C)(C)c2cc(Cl)cc(Cl)c2)C=C1/C=N/O (stereo not given) only.
[reply] 0.1%

* * *

Test system: Echinochloa oryzicola
Assay: Post-emergence herbicide activity against Echinochloa oryzicola under greenhouse condition at 10 g a.i/a treated at one-leaf stage measured after 3 weeks
Format: functional
Each item that follows carries a reported Activity.
Give the quantity in %, number only.

[ask] Give measured Activity for CC1=C(c2ccccc2)C(=O)N(C(C)(C)c2cc(Cl)cc(Cl)c2)C1 (Echinochloa oryzicola).
[reply] 100

[ask] Give measured Activity for COC(=O)C1(c2ccccc2)C(=O)N(C(C)(C)c2cc(Cl)cc(Cl)c2)C=C1C#N (centres undefined) (Echinochloa oryzicola).
[reply] 0

[ask] Give measured Activity for COC(=O)C1(c2ccccc2F)C(=O)N(C(C)(C)c2cc(Cl)cc(Cl)c2)C=C1C (centres undefined) (Echinochloa oryzicola).
[reply] 100

---
[ask] Give measured Activity for COC(=O)C1(c2ccccc2)C(=O)N(C(C)(C)c2cccc(Cl)c2)C=C1C (centres undefined) (Echinochloa oryzicola).
[reply] 100

* * *

Each item that follows carries a reported Activity.
System: Echinochloa oryzicola
Experiment: Herbicidal activity against Echinochloa oryzicola at 2.5 g a.i/a treated at 1.5 leaf stage measured after 3 weeks
Type: functional
Give the quantity in %, number only.

[ask] Answer with the recorded Activity of COC(=O)C1(c2ccccc2)C(=O)N(C(C)(C)c2cc(Cl)cc(Cl)c2)C=C1C (centres undefined) only.
[reply] 98

[ask] Answer with the recorded Activity of COC(=O)C1(c2ccccc2)C(=O)N(C(C)(C)c2cc(Cl)nc(Cl)c2)C=C1C (centres undefined) only.
[reply] 99

[ask] Answer with the recorded Activity of COC(=O)C1(c2ccccc2)C(=O)N(C(C)(C)c2cc(Cl)cc(Cl)c2)C=C1CO (centres undefined) only.
[reply] 99

[ask] Answer with the recorded Activity of CC1=C(c2ccccc2)C(=O)N(C(C)(C)c2cc(Cl)cc(Cl)c2)C1 only.
[reply] 95

All figures here come from ChEMBL document CHEMBL3044903.
